# ASSAY DETAILS: Plasma protein binding in human
# Assay type: ADME, cell-free
# PARTICULARS: read-out: PPB (converted)
Could you please report measured fraction unbound for the items listed next?
// print number alone

// `O=C(O)CCc1ccc(C#Cc2cc(Cl)nc(Cl)c2)cc1` : fraction unbound value = 0.031

// `Cc1ccccc1C#Cc1ccc(CCC(=O)O)cc1` : fraction unbound value = 0.023

====

# ASSAY DETAILS: Apparent permeability across methotrexate treated human HT-29 cells
# Assay type: ADME, cell-based
MEASURE NAME: Papp (×10⁻⁶ cm/s)
// note: answer is a bare numeric in ×10⁻⁶ cm/s

// CC(C(=O)O)c1cccc(C(=O)c2ccccc2)c1 (configuration not stated) [KETOPROFEN] : Papp value = 15.1

// `O=C(O)CCc1ccc(C#Cc2cc(Cl)nc(Cl)c2)cc1` : Papp value = 16.4
